// data source = the supplement of paper PMC10266784

B1: library; numbered along this chain (parent)
chain: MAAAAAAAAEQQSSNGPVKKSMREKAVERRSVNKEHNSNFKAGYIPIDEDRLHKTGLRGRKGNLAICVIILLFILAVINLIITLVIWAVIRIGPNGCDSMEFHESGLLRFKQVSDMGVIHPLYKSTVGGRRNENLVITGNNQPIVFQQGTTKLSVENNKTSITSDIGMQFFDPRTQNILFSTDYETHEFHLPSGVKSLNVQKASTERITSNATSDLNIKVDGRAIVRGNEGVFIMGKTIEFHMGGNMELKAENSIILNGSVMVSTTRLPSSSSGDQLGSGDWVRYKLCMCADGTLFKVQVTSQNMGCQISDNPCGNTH

Variants of: B1
method: SGCB cell-surface expression functional score (HA stain, bin4 vs bin1, normalised to synonymous) (log10 ratio); higher = more cell-surface SGCB (functional)
measurement_kind: SGCB cell-surface expression functional score (log10)
Just the number, please.

Query: Fill in reported SGCB cell-surface expression functional score (log10) for this entry: "L198C"
Response: -0.88

Query: Fill in reported SGCB cell-surface expression functional score (log10) for this entry: "N316I"
Response: -0.06

Query: Fill in reported SGCB cell-surface expression functional score (log10) for this entry: "T205E"
Response: -0.93

Query: Fill in reported SGCB cell-surface expression functional score (log10) for this entry: "D215P"
Response: -0.55

Query: Fill in reported SGCB cell-surface expression functional score (log10) for this entry: "A203T"
Response: -0.59

Query: Fill in reported SGCB cell-surface expression functional score (log10) for this entry: "I90L"
Response: 0.26

Query: Fill in reported SGCB cell-surface expression functional score (log10) for this entry: "R227C"
Response: 0.03

Query: Fill in reported SGCB cell-surface expression functional score (log10) for this entry: "N177R"
Response: 0.42
